TESTED_ON: Neuronal acetylcholine receptor; alpha3/beta4 (Rattus norvegicus) (UniProt P04757+P12392)
ASSAY: Antagonist activity at rat alpha3beta4 nAChR expressed in HEK293 cells assessed as inhibition of epibatadine-induced effect at 10 uM after 30 mins by fluorescent membrane potential assay relative to mecamylamine
Format: cell-based
Bridge positions count the residues as written; N and C are the ends. Square brackets hold non-standard residues; d marks the D form. Peptide text beside a SMILES is read from it. Nle = CCCC[C@H](N)C(=O)O; Abu = CC[C@H](N)C(=O)O
VALUE_KIND: inhibition (%)
Report only the number, with the unit % understood.

Completed entries (count: 2):
// field: inhibition; key: CCCC[C@@H]1NC(=O)[C@H](CO)NC(=O)[C@@H]2CSSC[C@@H](C(=O)O)NC(=O)[C@H](Cc3ccc(O)cc3)NC(=O)[C@H](CCC)NC(=O)[C@H](Cc3c[nH]c4ccccc34)NC(=O)[C@H]([C@H](C)CC)NC(=O)[C@H](CSSC[C@H](NC(=O)CN)C(=O)N2)NC(=O)[C@@H]2CCCN2C(=O)[C@@H]2CCCN2C1=O ; value = 58.3

response.value for CCCC[C@@H]1NC(=O)[C@H](Cc2c[nH]c3ccccc23)NC(=O)[C@H](Cc2ccccc2)NC(=O)[C@@H]2CSSC[C@H](NC(=O)CN)C(=O)N[C@@H](CSSC[C@@H](C(=O)O)NC(=O)[C@H](Cc3ccc(O)cc3)NC1=O)C(=O)N[C@@H](CO)C(=O)N[C@@H](Cc1cnc[nH]1)C(=O)N1CCC[C@H]1C(=O)N[C@@H](CC)C(=O)N2 (H-GCCSHP[Abu]CFW[Nle]YC-OH; disulfide 2-8, 3-13) (field: inhibition) = 101

Would you kindly look at the next entry?
response.value for CCCC[C@@H]1NC(=O)[C@H](CO)NC(=O)[C@@H]2CSSC[C@@H](C(=O)O)NC(=O)[C@H](Cc3ccc(O)cc3)NC(=O)[C@H](CCC)NC(=O)[C@H](CC)NC(=O)[C@H]([C@H](C)CC)NC(=O)[C@H](CSSC[C@H](NC(=O)CN)C(=O)N2)NC(=O)[C@H](CC)NC(=O)[C@@H]2CCCN2C1=O (field: inhibition) = 59.4

---

In this section, each of the compounds is paired with its reported inhibition.
TESTED_ON: Neuronal acetylcholine receptor; alpha3/beta4 (Rattus norvegicus) (UniProt P04757+P12392)
ASSAY: Antagonist activity at rat alpha3beta4 nAChR expressed in HEK293 cells assessed as inhibition of epibatadine-induced effect at 10 uM after 30 mins by fluorescent membrane potential assay relative to mecamylamine
Assay type: cell-based
Bridge positions count the residues as written; N and C are the ends. Square brackets hold non-standard residues; d marks the D form. Peptide text beside a SMILES is read from it. Nva = CCC[C@H](N)C(=O)O; Abu = CC[C@H](N)C(=O)O
Return type: number; implicit unit %.

Below, each entry is followed by its recorded inhibition result.
CCCC[C@@H]1NC(=O)[C@H](Cc2c[nH]c3ccccc23)NC(=O)[C@H]([C@H](C)CC)NC(=O)[C@@H]2CSSC[C@H](NC(=O)CN)C(=O)N[C@@H](CSSC[C@@H](C(=O)O)NC(=O)[C@H](Cc3ccc(O)cc3)NC1=O)C(=O)N[C@@H](CO)C(=O)N[C@@H](Cc1cnc[nH]1)C(=O)N1CCC[C@H]1C(=O)N1CCC[C@H]1C(=O)N2 has a reported inhibition of 43.9

Please fill in: inhibition reported for CCC[C@@H]1NC(=O)[C@H](CC)NC(=O)[C@H]([C@H](C)CC)NC(=O)[C@@H]2CSSC[C@H](NC(=O)CN)C(=O)N[C@@H](CSSC[C@@H](C(=O)O)NC(=O)[C@@H]3CCCN3C1=O)C(=O)N[C@@H](CO)C(=O)N[C@@H](Cc1cnc[nH]1)C(=O)N1CCC[C@H]1C(=O)N1CCC[C@H]1C(=O)N2 = 45.1

// next item, inhibition requested
What the record says about CCC[C@@H]1NC(=O)[C@H](CC)NC(=O)[C@H](Cc2ccccc2)NC(=O)[C@@H]2CSSC[C@H](NC(=O)CN)C(=O)N[C@@H](CSSC[C@@H](C(=O)O)NC(=O)[C@H](Cc3ccc(O)cc3)NC1=O)C(=O)N[C@@H](CO)C(=O)N[C@@H](Cc1cnc[nH]1)C(=O)N1CCC[C@H]1C(=O)N[C@@H](CC)C(=O)N2 (H-GCCSHP[Abu]CF[Abu][Nva]YC-OH; disulfide 2-8, 3-13) : inhibition is 109

Values compiled from ChEMBL document CHEMBL3232963.
